These entries and their values trace back to ChEMBL document CHEMBL3734738.

target-of-assay: Protein deacetylase HDAC6 (Homo sapiens, UniProt Q9UBN7)
Sequence (Q9UBN7 whole entry): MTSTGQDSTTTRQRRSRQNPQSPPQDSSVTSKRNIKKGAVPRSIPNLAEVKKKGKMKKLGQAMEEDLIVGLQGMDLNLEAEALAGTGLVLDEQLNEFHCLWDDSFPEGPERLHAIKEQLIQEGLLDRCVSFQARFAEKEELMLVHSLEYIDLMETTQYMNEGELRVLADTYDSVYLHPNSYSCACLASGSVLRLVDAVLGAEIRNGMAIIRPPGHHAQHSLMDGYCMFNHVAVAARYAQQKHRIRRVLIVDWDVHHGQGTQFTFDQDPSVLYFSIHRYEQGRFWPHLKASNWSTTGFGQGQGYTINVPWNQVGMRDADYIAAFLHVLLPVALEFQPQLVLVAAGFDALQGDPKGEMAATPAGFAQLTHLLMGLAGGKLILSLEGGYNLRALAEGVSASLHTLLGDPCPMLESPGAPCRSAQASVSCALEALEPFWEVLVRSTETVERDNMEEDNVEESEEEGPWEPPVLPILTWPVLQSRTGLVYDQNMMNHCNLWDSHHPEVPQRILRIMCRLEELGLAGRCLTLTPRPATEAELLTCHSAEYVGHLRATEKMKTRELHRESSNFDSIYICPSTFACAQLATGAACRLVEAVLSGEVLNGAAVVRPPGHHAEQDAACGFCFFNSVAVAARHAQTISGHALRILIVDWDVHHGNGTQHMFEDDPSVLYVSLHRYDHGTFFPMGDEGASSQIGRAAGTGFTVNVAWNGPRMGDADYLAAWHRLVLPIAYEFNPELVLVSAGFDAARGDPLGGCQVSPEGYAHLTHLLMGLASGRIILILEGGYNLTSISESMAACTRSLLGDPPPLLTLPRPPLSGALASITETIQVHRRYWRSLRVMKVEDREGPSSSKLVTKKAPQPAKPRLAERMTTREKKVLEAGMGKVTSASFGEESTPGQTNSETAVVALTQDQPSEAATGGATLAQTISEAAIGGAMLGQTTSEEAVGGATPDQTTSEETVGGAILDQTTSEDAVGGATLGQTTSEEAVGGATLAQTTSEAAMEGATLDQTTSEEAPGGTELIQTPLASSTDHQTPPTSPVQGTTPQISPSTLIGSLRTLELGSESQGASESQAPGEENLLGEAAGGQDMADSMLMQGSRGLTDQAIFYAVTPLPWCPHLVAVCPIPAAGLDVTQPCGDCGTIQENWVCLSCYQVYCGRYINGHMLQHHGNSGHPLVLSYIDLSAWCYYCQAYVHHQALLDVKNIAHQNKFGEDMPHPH
test: Inhibition of recombinant HDAC6 (unknown origin) expressed in Escherichia coli BL21(DE3) after 60 mins using trichostatin A by label-free mass spectrometry-based SAMDI assay
pIC50: −log10 of the molar value.
Reported pIC50 values are given for each entry in this list.

- compound: "CC[C@H]1OC(=O)[C@@H](C)[C@H](O[C@H]2C[C@@](C)(OC)[C@@H](O)[C@H](C)O2)[C@H](C)[C@H](O[C@H]2O[C@@H](C)C[C@@H](N(C)Cc3ccc(-c4cn(CCC(=O)NO)nn4)cc3)[C@@H]2O)[C@@](C)(O)C[C@H](C)CN(C)[C@@H](C)[C@H](O)[C@@]1(C)O"
  comparison-sign: "="
  pIC50: 5.66
- compound: "CC[C@@H]1OC(=O)[C@H](C)[C@@H](O[C@H]2C[C@@](C)(OC)[C@](O)(CN(C)Cc3ccc(-c4cn(CCC(=O)NO)nn4)cc3)[C@H](C)O2)[C@@H](C)[C@@H](O[C@@H]2O[C@H](C)C[C@H](N(C)C)[C@H]2O)[C@](C)(O)C[C@@H](C)CN(C)[C@H](C)[C@@H](O)[C@]1(C)O"
  comparison-sign: "="
  pIC50: 5.69
- compound: "CC[C@@H]1OC(=O)[C@@H](C)[C@H](O[C@@H]2C[C@](C)(OC)[C@@](O)(CN(C)C)[C@@H](C)O2)[C@H](C)[C@H](O[C@@H]2O[C@H](C)C[C@H](N(C)Cc3ccc(-c4cn(CCCCCC(=O)NO)nn4)cc3)[C@H]2O)[C@@](C)(OC)C[C@H](C)C(=O)[C@@H](C)[C@@H](O)[C@@]1(C)O"
  comparison-sign: "="
  pIC50: 7.48
- compound: "CC[C@@H]1OC(=O)[C@H](C)[C@@H](O[C@@H]2C[C@](C)(OC)[C@H](O)[C@@H](C)O2)[C@@H](C)[C@@H](O[C@@H]2O[C@H](C)C[C@H](N(C)Cc3ccc(-c4cn(CCCCC(=O)NO)nn4)cc3)[C@H]2O)[C@](C)(O)C[C@@H](C)CN(C)[C@H](C)[C@@H](O)[C@]1(C)O"
  comparison-sign: "="
  pIC50: 6.84
- compound: "CC[C@@H]1OC(=O)[C@@H](C)[C@H](O[C@H]2C[C@@](C)(OC)[C@](O)(CN(C)Cc3ccc(-c4cn(CCCCC(=O)NO)nn4)cc3)[C@H](C)O2)[C@H](C)[C@H](O[C@@H]2O[C@H](C)C[C@H](N(C)C)[C@H]2O)[C@@](C)(OC)C[C@H](C)C(=O)[C@@H](C)[C@@H](O)[C@@]1(C)O"
  comparison-sign: "="
  pIC50: 6.57
- compound: "CC[C@H]1OC(=O)[C@H](C)[C@@H](O[C@@H]2C[C@](C)(OC)[C@H](O)[C@@H](C)O2)[C@H](C)[C@@H](O[C@@H]2O[C@H](C)C[C@H](N(C)C)[C@H]2O)[C@@](C)(O)C[C@@H](C)CN(Cc2ccc(-c3cn(CCCCCC(=O)NO)nn3)cc2)[C@@H](C)[C@@H](O)[C@]1(C)O"
  comparison-sign: "="
  pIC50: 7.99
- compound: "CC[C@@H]1OC(=O)[C@@H](C)[C@H](O[C@H]2C[C@@](C)(OC)[C@@H](O)[C@H](C)O2)[C@H](C)[C@H](O[C@@H]2O[C@H](C)C[C@H](N(C)Cc3ccc(-c4cn(CCC(=O)NO)nn4)cc3)[C@H]2O)[C@@](C)(OC)C[C@H](C)C(=O)[C@@H](C)[C@@H](O)[C@@]1(C)O"
  comparison-sign: "="
  pIC50: 6.04
- compound: "CC[C@@H]1OC(=O)[C@H](C)[C@@H](O[C@H]2C[C@@](C)(OC)[C@](O)(CN(C)C)[C@H](C)O2)[C@@H](C)[C@@H](O[C@@H]2O[C@H](C)C[C@H](N(C)Cc3ccc(-c4cn(CCCCCC(=O)NO)nn4)cc3)[C@H]2O)[C@](C)(O)C[C@@H](C)CN(C)[C@H](C)[C@@H](O)[C@]1(C)O"
  comparison-sign: "="
  pIC50: 7.83
- compound: "CC[C@H]1OC(=O)[C@H](C)[C@@H](O[C@@H]2C[C@](C)(OC)[C@H](O)[C@@H](C)O2)[C@H](C)[C@@H](O[C@@H]2O[C@H](C)C[C@H](N(C)C)[C@H]2O)[C@@](C)(O)C[C@@H](C)CN(Cc2ccc(-c3cn(CC(=O)NO)nn3)cc2)[C@@H](C)[C@@H](O)[C@]1(C)O"
  comparison-sign: "<"
  pIC50: 5.00
- compound: "CC[C@H]1OC(=O)[C@H](C)C(=O)[C@H](C)[C@@H](O[C@@H]2O[C@H](C)C[C@H](N(C)Cc3cccc(-c4cn(CCCCCC(=O)NO)nn4)c3)[C@H]2O)[C@@](C)(OC)C[C@@H](C)C2=NCCN3C(=O)O[C@@]1(C)[C@H]3[C@H]2C"
  comparison-sign: "="
  pIC50: 7.76
- compound: "CC[C@H]1OC(=O)[C@H](C)[C@@H](O[C@@H]2C[C@](C)(OC)[C@H](O)[C@@H](C)O2)[C@@H](C)[C@@H](O[C@H]2O[C@@H](C)C[C@@H](N(C)Cc3ccc(-c4cn(CCCCCC(=O)NO)nn4)cc3)[C@@H]2O)[C@](C)(OC)C[C@@H](C)C(=O)[C@H](C)[C@H](O)[C@]1(C)O (stereo in doubt)"
  comparison-sign: "="
  pIC50: 8.44
- compound: "CC[C@H]1OC(=O)[C@H](C)C(=O)[C@H](C)[C@@H](O[C@@H]2O[C@H](C)C[C@H](N(C)Cc3cccc(-c4cn(CCCCCCC(=O)NO)nn4)c3)[C@H]2O)[C@@](C)(OC)C[C@@H](C)C2=NCCN3C(=O)O[C@@]1(C)[C@H]3[C@H]2C"
  comparison-sign: "="
  pIC50: 8.42
- compound: "CC[C@@H]1OC(=O)[C@H](C)[C@@H](O[C@@H]2C[C@](C)(OC)[C@H](O)[C@@H](C)O2)[C@@H](C)[C@@H](O[C@@H]2O[C@H](C)C[C@H](N(C)Cc3ccccc3-c3cn(CCCCCC(=O)NO)nn3)[C@H]2O)[C@](C)(O)C[C@@H](C)CN(C)[C@H](C)[C@@H](O)[C@]1(C)O"
  comparison-sign: "="
  pIC50: 6.75
